target: human PDHK2 (hPDHK2) (Homo sapiens (Human)); test: Inhibitory action of PDHK activity in vitro (kinase reaction, residual PDH activity measured); type: biochemical; settings: PDHK inhibitory activity (class symbol)
outcome.measure: IC50

# compound, outcome.measure, reading
records = [
    ("CC(C)(Cn1cc(-c2cc(F)cc3c2-c2ccccc2C3(O)C(F)(F)F)cn1)C(=O)O (single isomer, unassigned)", "IC50", "< 100 nM"),
    ("COc1cc(-c2cnn(C(C)(C)CC(=O)O)c2)c2c(c1)C(O)(C(F)(F)F)c1ccccc1-2 (single isomer, unassigned)", "IC50", "< 100 nM"),
    ("Cn1cc(-c2cc(CCO)c3c(c2)C(O)(C(F)(F)F)c2ccccc2-3)cn1 (stereo not shown)", "IC50", "100 to 1000 nM"),
    ("NC(=O)c1cc(Cl)cc2c1-c1ccccc1C2(O)C(F)(F)F (stereo not shown)", "IC50", "100 to 1000 nM"),
    ("CC(CO)(CO)n1cc(-c2cccc3c2-c2ccccc2C3(O)C(F)(F)F)cn1 (single isomer, unassigned)", "IC50", "< 100 nM"),
    ("CC(C)(C)CCc1cc(-c2cnn(C(CO)CO)c2)c2c(c1)C(O)(C(F)(F)F)c1ccccc1-2 (stereo not shown) [compound 666]", "IC50", "< 100 nM"),
    ("C#Cc1cc(CO)c2c(c1)C(O)(C(F)(F)F)c1ccccc1-2 (stereo not shown)", "IC50", "100 to 1000 nM"),
    ("CC(C)Cn1cc(-c2cc(C(N)=O)c3c(c2)C(O)(C(F)(F)F)c2ccccc2-3)cn1 (stereo not shown)", "IC50", "< 100 nM"),
    ("CCn1cc(-c2cc(CO)c3c(c2)C(O)(C(F)(F)F)c2ccccc2-3)cn1 (single isomer, unassigned) [compound 629]", "IC50", "< 100 nM"),
    ("CC(C)(C)Cn1cc(-c2cc(CO)c3c(c2)C(O)(C(F)(F)F)c2ccccc2-3)cn1 (single isomer, unassigned) [compound 660]", "IC50", "< 100 nM"),
    ("OCCCCOc1cc(CO)c2c(c1)C(O)(C(F)(F)F)c1ccccc1-2 (stereo not shown)", "IC50", "100 to 1000 nM"),
    ("Cn1cc(-c2cc(C#CCO)c3c(c2)C(O)(C(F)(F)F)c2ccccc2-3)cn1 (stereo not shown)", "IC50", "100 to 1000 nM"),
    ("OCc1cc(-c2cnn(CC3CCCCC3)c2)cc2c1-c1ccccc1C2(O)C(F)(F)F (single isomer, unassigned)", "IC50", "< 100 nM"),
]

----------
pIC50 values for the compounds below.
target: human PDHK2 (hPDHK2) (Homo sapiens (Human)); test: Inhibitory action of PDHK activity in vitro (kinase reaction, residual PDH activity measured); assay type: biochemical; conditions: PDHK inhibitory activity, class symbol of IC50
pIC50: −log10 of the molar value.

# compound, pIC50
measured = [
    ("COC(=O)c1ccc2c(c1)-c1ccccc1C2(O)C(F)(F)F (centres unmarked)", "< 6.00"),
    ("CN(CCOc1cc(-c2cnn(C)c2)c2c(c1)C(O)(C(F)(F)F)c1ccccc1-2)C(=O)C(C)(C)O (centres unmarked)", "> 7.00"),
    ("COc1ccc(-c2ccc3c(c2)C(O)(C(F)(F)F)c2ccccc2-3)cc1 (centres unmarked)", "6.00 to 7.00"),
    ("CC(C)OC(=O)c1cccc2c1-c1ccccc1C2(O)C(F)(F)F (centres unmarked)", "< 6.00"),
    ("CNC(=O)C1CCN(c2ccc3c(c2)C(O)(C(F)(F)F)c2ccccc2-3)CC1 (centres unmarked)", "< 6.00"),
    ("O=C(c1ccc2c(c1)C(O)(C(F)(F)F)c1ccccc1-2)N1CC(C(=O)N2CCCCC2)C1 (centres unmarked)", "6.00 to 7.00"),
    ("CCn1cc(-c2cc(OCCCC(=O)O)cc3c2-c2ccccc2C3(O)C(F)(F)F)cn1 (single isomer, unassigned)", "> 7.00"),
    ("O[C@@H]1CCN(CCOc2ccc3c(c2)C(O)(C(F)(F)F)c2ccccc2-3)C1 (some centres unmarked)", "6.00 to 7.00"),
    ("NC(=O)C1CCCN1C(=O)c1ccc2c(c1)C(O)(C(F)(F)F)c1ccccc1-2 (centres unmarked)", "< 6.00"),
    ("O=C(O)C1CCN(C(=O)c2ccc3c(c2)C(O)(C(F)(F)F)c2ccccc2-3)C1 (centres unmarked)", "< 6.00"),
    ("CN(C)C(=O)c1ccccc1-c1ccc2c(c1)C(O)(C(F)(F)F)c1ccccc1-2 (centres unmarked)", "< 6.00"),
    ("OC1(C(F)(F)F)c2ccccc2-c2c(C3CC3)cccc21 (centres unmarked)", "< 6.00"),
    ("CCCN(C)C(=O)c1ccc2c(c1)C(O)(C(F)(F)F)c1ccccc1-2 (centres unmarked)", "< 6.00"),
    ("Cn1cc(-c2cc(OCCCc3nnn[nH]3)cc3c2-c2ccccc2C3(O)C(F)(F)F)cn1 (single isomer, unassigned)", "> 7.00"),
    ("CNC(=O)c1ccc2c(c1)-c1ccccc1C2(O)C(F)(F)F (centres unmarked)", "< 6.00"),
    ("OC1(C(F)(F)F)c2ccccc2-c2ccc(OCc3cccs3)cc21 (centres unmarked)", "< 6.00"),
    ("COC1CN(C(=O)c2ccc3c(c2)C(O)(C(F)(F)F)c2ccccc2-3)C1 (centres unmarked)", "6.00 to 7.00"),
]
